molecular target: Renin (Homo sapiens); assay: In vitro potency against purified renin at a pH of 6.0.
Entries whose IC50 is below 2 nM take 1; entries at or above 2 nM take 0.

INSERT INTO measurements (compound, assay_system, category) VALUES
  ('CCCC[C@H](O[C@@H](Cc1ccccc1)C(=O)N1CCC(SCOC)CC1)C(=O)N[C@@H](CC1CCCCC1)[C@@H](O)[C@@H](O)CC(C)C', 'Renin (Homo sapiens)', 1),
  ('CCCC[C@H](N[C@@H](Cc1ccccc1)C(=O)N1CCC(OCCOC)CC1)C(=O)N[C@@H](CC1CCCCC1)[C@@H](O)[C@@H](O)CC(C)C', 'Renin (Homo sapiens)', 0),
  ('CCC[C@H](O[C@@H](Cc1ccccc1)C(=O)N1CCC(OCOC)CC1)C(=O)N[C@@H](CC1CCCCC1)[C@@H](O)[C@@H](O)CC(C)C', 'Renin (Homo sapiens)', 1),
  ('C=CCOC1CCN(C(=O)[C@H](Cc2ccccc2)O[C@@H](CCCC)C(=O)N[C@@H](CC2CCCCC2)[C@@H](O)[C@@H](O)CC(C)C)CC1', 'Renin (Homo sapiens)', 0),
  ('CCCC[C@H](N[C@@H](Cc1ccccc1)C(=O)N1CCOCC1)C(=O)N[C@@H](CC1CCCCC1)[C@@H](O)[C@@H](O)CC(C)C', 'Renin (Homo sapiens)', 0),
  ('CCOC(=O)C(CCc1ccccc1)N[C@@H](C)C(=O)N[C@@H](CC1CCCCC1)[C@@H](O)[C@@H](O)CC(C)C (single isomer, unassigned; less polar)', 'Renin (Homo sapiens)', 0);

----------
Biological target: Renin (Homo sapiens)
Sequence (P00797 whole entry): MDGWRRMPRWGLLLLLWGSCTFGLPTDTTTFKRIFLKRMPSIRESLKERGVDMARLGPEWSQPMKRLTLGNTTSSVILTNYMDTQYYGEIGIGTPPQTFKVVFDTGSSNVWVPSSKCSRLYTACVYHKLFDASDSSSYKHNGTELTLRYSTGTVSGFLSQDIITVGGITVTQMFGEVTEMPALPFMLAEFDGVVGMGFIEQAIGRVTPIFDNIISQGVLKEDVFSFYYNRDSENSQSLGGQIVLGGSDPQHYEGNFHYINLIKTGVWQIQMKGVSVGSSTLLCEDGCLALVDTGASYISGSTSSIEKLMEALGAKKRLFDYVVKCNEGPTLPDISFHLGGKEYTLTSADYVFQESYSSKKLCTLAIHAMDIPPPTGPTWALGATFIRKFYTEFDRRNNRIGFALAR
Assay: In vitro potency against plasma renin at a pH of 7.4
Format: cell-free
pIC50: −log10 of the molar value.
// reported pIC50 for each item listed
MEASURE: pIC50

INSERT INTO results (smiles_representation, value_reported) VALUES
  ('CCC[C@H](O[C@@H](Cc1ccccc1)C(=O)N1CCC(OCOC)CC1)C(=O)N[C@@H](CC1CCCCC1)[C@@H](O)[C@@H](O)CC(C)C', 7.51),
  ('CCCCNC(=O)[C@@H](C[C@H](O)[C@H](CC1CCCCC1)NC(=O)[C@H](CCCC)N[C@@H](Cc1ccccc1)C(=O)N1CCC(OCOC)CC1)C(C)C', 8.06),
  ('CCCC[C@H](N[C@@H](Cc1ccccc1)C(=O)N1CCC(OCCOC)CC1)C(=O)N[C@@H](CC1CCCCC1)[C@@H](O)[C@@H](O)CC(C)C', 5.74);
